test system: Malme-3M; assay: NCI tumour cell line growth inhibition, 48 h
Active and inactive are the calls of the source. Cut-off read from the data, not from the text of the source: active = GI50 up to about 1.1 µM and inactive = higher.
Can you answer with just one of these options? active, inactive

Study these solved cases before continuing.
[[record]]
compound = "O=C1NC(Nc2ccccc2)=NC(C(F)(F)F)(C(F)(F)F)N1"
qualitative_label = "inactive"

[[record]]
compound = "Cc1cc(S(=O)(=O)Nc2nc(Nc3ccc(Cl)cc3)n[nH]2)c(S)cc1Cl"
qualitative_label = "inactive"

[[record]]
compound = "CC(C)(CN1CCOCC1)C(=O)/C=C/c1ccc(/C=C/C(=O)C(C)(C)CN2CCOCC2)cc1"
qualitative_label = "inactive"

[[record]]
compound = "O=C(Cc1nc2ccc([N+](=O)[O-])cc2nc1O)C(=O)Nc1ccccc1[N+](=O)[O-]"
qualitative_label = "inactive"

[[record]]
compound = "COc1cccc(-c2c(-c3ccccc3)[nH]c(C)c2C(=O)ONC(=O)c2ccccc2)c1"
qualitative_label = "inactive"

[[record]]
compound = "CC(C)(C)S(=O)OC12CC3CC(CC(C3)C1)C2 (configuration not stated)"
qualitative_label = "inactive"


Q: Status in this test for C1CSC(Sc2nc(SC3=NCCS3)nc(SC3=NCCS3)n2)=N1 ?
Result: inactive

Q: Status in this test for CC1OC(OC2C(OC(=O)[C@]34CCC(C)(C)C[C@H]3C3=CC[C@@H]5[C@@]6(C)CC[C@H](OC7OC(CO)C(O)C(O)C7OC7OC(CO)C(O)C(O)C7O)C(C)(C)[C@@H]6CC[C@@]5(C)[C@]3(C)CC4)OCC(O)C2O)C(O)C(O)C1OC1OCC(O)C(O)C1O (some centres not stated) ?
Result: inactive

Q: Status in this test for CC(NC(=O)C(N)Cc1ccc(O)cn1)C(=O)O (configuration not stated) ?
Result: inactive

Q: Status in this test for COc1ccc(C2=NN(C(=O)c3ccccc3)C(O)(c3cc(F)c(Cl)cc3Cl)C2)cc1OC (configuration not stated) ?
Result: inactive
